Overview of recorded Tm for various sequences
- PROCEDURE_SUMMARY: melting temperature; fluorescence melt of hairpins on a sequencing array, two-state fit, raised by 9.35 °C to match UV melts
- APPLIED_CONDITIONS: sodium 0.088 M
Expressed in °C, but write only the number.

The examples below pair each entry with its known result.
                        polymer_sequence  recorded_result
0  GCGCAGCGAAAGCTACGC (((.(((....))).)))             53.5
1  GCCCACGAAAGTGCCGGC ((((((....)))..)))             46.6
2  GCTTTGCGAAAGCTCAGC (((..((....))..)))             44.3
3                GCGATTATCGC ((((...))))               49
4      GATCAGTAGCCTGATC ((((((....))))))             49.6

Enquiry: Please report the recorded Tm for CGTTTCCGGAAACGGACG (((..(((....)))))) .
Return: 49.3

----------
- PROCEDURE_SUMMARY: folding enthalpy; higher = less favourable; fluorescence melt of hairpins on a sequencing array, two-state fit
- APPLIED_CONDITIONS: sodium 0.088 M
TEST_READOUT: folding enthalpy (kcal/mol)
Expressed in kcal/mol, but write only the number.

The examples below pair each entry with its known result.
                        polymer_sequence      test_readout  recorded_result
0  GTCTACGGAAACGCAGAC ((((.((....)).))))  folding enthalpy              -35
1  GCAGAGCGAAAGCCTTGC (((..((....))..)))  folding enthalpy            -14.5

Enquiry: Please report the recorded folding enthalpy for GTAGTCGAAAGACATTAC ((((((....)))..))) .
Return: -9.35

Enquiry: Please report the recorded folding enthalpy for GCGACACGAAAGTGCCGC (((.(((....))).))) .
Return: -38.8

Enquiry: Please report the recorded folding enthalpy for GGGATCGAAAGATTTCCC ((((((....)))..))) .
Return: -19

Enquiry: Please report the recorded folding enthalpy for GATCTAGAAGTAGATC ((((((....)))))) .
Return: -27.6

Enquiry: Please report the recorded folding enthalpy for GCTAAGTCGAAAGACAGC (((..(((....)))))) .
Return: -20.2

Enquiry: Please report the recorded folding enthalpy for GGTGCCGAAAGGCCCACC ((((((....)))..))) .
Return: -11.4

----------
- PROCEDURE_SUMMARY: folding enthalpy; higher = less favourable; fluorescence melt of hairpins on a sequencing array, two-state fit
- APPLIED_CONDITIONS: sodium 0.088 M
TEST_READOUT: folding enthalpy (kcal/mol)
Expressed in kcal/mol, but write only the number.

>>> print(df.to_string())
                        polymer_sequence      test_readout  recorded_result
0      GATCGTACATACGATC ((((((....))))))  folding enthalpy            -41.2
1      GGGGTGGAAACACCCC ((((((....))))))  folding enthalpy            -38.9
2  GTCGCTGGAAACAGTGAC (((.(((....))).)))  folding enthalpy            -50.4
3    GGGTCCCGAAAGGGCCC (((.(((....))))))  folding enthalpy            -29.5
4  CGAGGCGGAAACGCTTCG (((.(((....))).)))  folding enthalpy            -35.3
5  GCAGTGCGAAAGCAACGC ((..(((....)))..))  folding enthalpy            -15.1
6  GGTAATACGAAAGTAACC (((..(((....))))))  folding enthalpy            -9.63
7  GCTTGGCGAAAGCATAGC (((..((....))..)))  folding enthalpy            -20.3
8  GCAACCGAAAGGTGTTGC ((((((....)))..)))  folding enthalpy              -19
9  CGTCTGCGGAAACGCACG (((..(((....))))))  folding enthalpy            -12.2

Consider the record given below.
Enquiry: Please report the recorded folding enthalpy for GCGGTGCGAAAGCCACGC (((..((....))..))) .
Return: -19.8

----------
- PROCEDURE_SUMMARY: folding enthalpy; higher = less favourable; fluorescence melt of hairpins on a sequencing array, two-state fit
- APPLIED_CONDITIONS: sodium 0.088 M
Could you please classify the records by folding enthalpy using these ranges: Low = under -30 kcal/mol, Medium = from -30 kcal/mol up to -20 kcal/mol, High = -20 kcal/mol and over

Enquiry: Exercise: read the entry GATCTTAGAGAAGATC ((((((....)))))) and state which class it falls under.
Return: Medium

Enquiry: Exercise: read the entry GCCTTTGGAAACAAAGAC (.(((((....))))).) and state which class it falls under.
Return: Medium

Enquiry: Exercise: read the entry GATCCTTCCCAGGATC ((((((....)))))) and state which class it falls under.
Return: Low

Enquiry: Exercise: read the entry GATCCATGCATGGATC ((((((....)))))) and state which class it falls under.
Return: Low

Enquiry: Exercise: read the entry GCATGTGGAAACACATGC (((((((....))))))) and state which class it falls under.
Return: Low

Enquiry: Exercise: read the entry GACAGCGAAAGCTTCGTC ((((((....)))..))) and state which class it falls under.
Return: High

Enquiry: Exercise: read the entry CAAACAGAAATGGTTG (((.((....)).))) and state which class it falls under.
Return: High

Enquiry: Exercise: read the entry GCTCACGAAAGTGAAGC ((((((....))).))) and state which class it falls under.
Return: Medium

Enquiry: Exercise: read the entry GCACGTCCGAAAGGATGC (((..(((....)))))) and state which class it falls under.
Return: High

----------
- PROCEDURE_SUMMARY: melting temperature; fluorescence melt of hairpins on a sequencing array, two-state fit, raised by 9.35 °C to match UV melts
- APPLIED_CONDITIONS: sodium 0.088 M
Param threshold (40 °C) applies to Tm; output Met when value >= threshold, Not met when value < threshold.

Example entries begin here.
>>> df
                        polymer_sequence  classification
0  GTGTAAGGAAACTTACAC (((((((....)))))))             Met
1  GGGGAACGAAAGTTACCC (((.(((....))).)))             Met
2  GGGAATCGAAAGATACCC (((.(((....))).)))             Met
3  GCGGTGCGAAAGCTCTGC ((.(.((....)).).))             Met
4  GCTAGAACGAAAGTTAGC (((..(((....))))))         Not met
5  CGTGGCCGGAAACGGACG (((..(((....))))))             Met

Enquiry: Check this sequence for Tm at or above 40 °C: GTGACGGGAAACCGTTAC ((.((((....)))).))
Return: Met

----------
- PROCEDURE_SUMMARY: folding enthalpy; higher = less favourable; fluorescence melt of hairpins on a sequencing array, two-state fit
- APPLIED_CONDITIONS: sodium 0.088 M
Param threshold (-20 kcal/mol) applies to folding enthalpy; output t when value >= threshold, f when value < threshold.

Example entries begin here.
>>> print(df.to_string())
                        polymer_sequence  classification
0  GCCTATGGAAACATAGAC (.(((((....))))).)               t
1        GATCAAAAGTTGATC ((((((...))))))               f
2          ATCCGGAAACGGAT (((((....)))))               f
3  GGGCGTGGAAACACGCTC (.(((((....))))).)               t
4  GCAGCGGGAAACCGCCGC ((.((((....)))).))               t
5  GTAATCGAAAGATGGTAC ((((((....)))..)))               t
6  GGAGAACGAAAGTTGTCC (((.(((....))).)))               f
7  GTGCTAGGAAACTGGCAC ((((.((....)).))))               f

Enquiry: Check this sequence for folding enthalpy at or above -20 kcal/mol: GAGGTAGGAAACTATCTC (((.(((....))).)))
Return: f

Enquiry: Check this sequence for folding enthalpy at or above -20 kcal/mol: GCCGGGCGAAAGCTGGGC (((..((....))..)))
Return: f

Enquiry: Check this sequence for folding enthalpy at or above -20 kcal/mol: CGCACTCGGAAACGAGCG (((..(((....))))))
Return: t

Enquiry: Check this sequence for folding enthalpy at or above -20 kcal/mol: GGTGCACGAAAGTGAACC (((.(((....))).)))
Return: f
